Study system: human KDR (human, UniProt P35968 20-1356)
Sequence (P35968 20-1356): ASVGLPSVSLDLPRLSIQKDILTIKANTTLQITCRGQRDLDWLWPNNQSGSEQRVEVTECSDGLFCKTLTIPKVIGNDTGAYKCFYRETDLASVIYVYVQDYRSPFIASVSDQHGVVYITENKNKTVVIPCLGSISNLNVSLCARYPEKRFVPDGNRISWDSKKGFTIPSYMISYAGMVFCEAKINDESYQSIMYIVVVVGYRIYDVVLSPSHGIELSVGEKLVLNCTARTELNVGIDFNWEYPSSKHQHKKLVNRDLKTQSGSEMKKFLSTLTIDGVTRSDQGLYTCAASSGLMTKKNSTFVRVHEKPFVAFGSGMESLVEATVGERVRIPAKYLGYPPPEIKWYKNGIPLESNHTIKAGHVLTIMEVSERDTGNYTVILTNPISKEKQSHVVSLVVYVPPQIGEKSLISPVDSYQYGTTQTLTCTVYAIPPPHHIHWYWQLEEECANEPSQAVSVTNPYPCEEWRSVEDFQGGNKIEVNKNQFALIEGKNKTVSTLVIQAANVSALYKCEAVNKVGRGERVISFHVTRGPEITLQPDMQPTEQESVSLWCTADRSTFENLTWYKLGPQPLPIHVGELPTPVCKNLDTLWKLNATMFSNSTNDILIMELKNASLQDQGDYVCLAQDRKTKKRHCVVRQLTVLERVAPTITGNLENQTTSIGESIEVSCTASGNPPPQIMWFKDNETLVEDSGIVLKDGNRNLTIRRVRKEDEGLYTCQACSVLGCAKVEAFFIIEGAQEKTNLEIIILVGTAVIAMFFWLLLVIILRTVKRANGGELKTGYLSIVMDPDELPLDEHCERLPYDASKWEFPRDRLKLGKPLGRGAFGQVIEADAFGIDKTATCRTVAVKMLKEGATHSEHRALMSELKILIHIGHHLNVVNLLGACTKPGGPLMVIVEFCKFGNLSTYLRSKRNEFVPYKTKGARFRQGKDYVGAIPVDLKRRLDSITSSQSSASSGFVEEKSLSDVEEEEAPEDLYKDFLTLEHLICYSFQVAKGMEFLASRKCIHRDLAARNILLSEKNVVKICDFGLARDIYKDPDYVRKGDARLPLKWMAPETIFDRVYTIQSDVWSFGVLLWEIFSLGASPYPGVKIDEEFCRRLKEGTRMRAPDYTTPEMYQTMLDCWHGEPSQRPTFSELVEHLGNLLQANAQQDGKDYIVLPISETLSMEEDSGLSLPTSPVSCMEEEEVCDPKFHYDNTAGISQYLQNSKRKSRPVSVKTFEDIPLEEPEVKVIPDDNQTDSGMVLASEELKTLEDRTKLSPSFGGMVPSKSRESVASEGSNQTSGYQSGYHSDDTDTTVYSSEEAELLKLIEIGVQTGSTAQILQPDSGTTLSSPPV
Procedure details: cell-based or functional assay
Here, each record is paired with measured KDR tyrosine phosphorylation in HUVEC, EC50 (nM), Average data.
Measured attribute: KDR tyrosine phosphorylation in HUVEC, EC50 (nM), Average

{"columns": ["Binder", "Unit label", "Value measured"],
 "data": [
  ["31E11 (antibody, V domains shown, Fully human monoclonal antibody from a XenoMouse hybridoma (IgG2 or IgG4 strain), purified) VH: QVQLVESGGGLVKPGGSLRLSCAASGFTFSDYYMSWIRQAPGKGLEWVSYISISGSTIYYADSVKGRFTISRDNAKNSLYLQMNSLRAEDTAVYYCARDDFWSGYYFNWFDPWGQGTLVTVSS VL: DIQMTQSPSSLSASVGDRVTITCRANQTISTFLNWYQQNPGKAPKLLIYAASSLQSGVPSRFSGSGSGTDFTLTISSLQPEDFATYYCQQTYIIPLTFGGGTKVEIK", "nM", 1.9],
  ["33C3 (antibody, V domains shown, Fully human monoclonal antibody from a XenoMouse hybridoma (IgG2 or IgG4 strain), purified) VH: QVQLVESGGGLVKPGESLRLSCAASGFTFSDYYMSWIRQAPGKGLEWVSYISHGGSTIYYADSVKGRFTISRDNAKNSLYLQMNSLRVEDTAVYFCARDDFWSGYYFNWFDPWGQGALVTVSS VL: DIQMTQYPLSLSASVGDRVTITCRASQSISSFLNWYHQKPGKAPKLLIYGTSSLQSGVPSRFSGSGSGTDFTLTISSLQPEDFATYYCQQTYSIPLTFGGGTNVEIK", "nM", 1.2],
  ["33E1 (antibody, V domains shown, Fully human monoclonal antibody from a XenoMouse hybridoma (IgG2 or IgG4 strain), purified) VH: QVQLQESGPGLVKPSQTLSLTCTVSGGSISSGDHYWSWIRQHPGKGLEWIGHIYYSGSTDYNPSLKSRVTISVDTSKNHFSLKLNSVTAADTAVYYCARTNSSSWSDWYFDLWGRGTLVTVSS VL: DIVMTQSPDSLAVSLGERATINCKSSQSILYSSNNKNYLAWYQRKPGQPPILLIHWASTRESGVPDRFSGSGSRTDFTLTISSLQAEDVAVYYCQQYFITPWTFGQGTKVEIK", "nM", 5.5],
  ["21H6 (antibody, V domains shown, Fully human monoclonal antibody from a XenoMouse hybridoma, purified) VH: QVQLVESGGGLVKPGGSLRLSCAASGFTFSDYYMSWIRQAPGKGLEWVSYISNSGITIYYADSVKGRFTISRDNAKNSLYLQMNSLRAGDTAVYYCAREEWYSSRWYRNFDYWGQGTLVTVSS VL: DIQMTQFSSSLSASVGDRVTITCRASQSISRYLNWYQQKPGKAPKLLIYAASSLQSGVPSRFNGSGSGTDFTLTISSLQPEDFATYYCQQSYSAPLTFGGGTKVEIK", "nM", 6.9]
]}
